List of Ratio IC50 values.
- Assay Procedure: Selectivity ratio of IC50 for gamma-secretase-mediated notch cleavage to IC50 gamma-secretase-mediated APP cleavage
Hey, just send me the number, nothing else.

// worked examples, Ratio IC50 included
Can you share its Ratio IC50? I mean this compound: Cc1ccc(CN([C@@H]2CCCCNC2=O)S(=O)(=O)c2ccc(Cl)cc2)o1
1

Suppose we examine the compound O=C(NC1CCC1)c1ccc(CN([C@@H]2CCCCNC2=O)S(=O)(=O)c2ccc(Cl)cc2)cc1 ; what Ratio IC50 value has been reported?
2

Which value of Ratio IC50 has been reported for Cn1c(CN([C@@H]2CCCCNC2=O)S(=O)(=O)c2ccc(Cl)cc2)cc2ccccc21 in the records?
5

Form field: reported Ratio IC50 of O=C1NCCCC[C@H]1N(Cc1csnn1)S(=O)(=O)c1ccc(Cl)cc1
3

I'd like to know its Ratio IC50. The compound in question is O=C(Nc1ccccc1)c1ccc(CN([C@@H]2CCCCNC2=O)S(=O)(=O)c2ccc(Cl)cc2)cc1
1

Fill in the blank: the reported Ratio IC50 of O=C1NCCCC[C@H]1N(Cc1cnc2ncccc2c1)S(=O)(=O)c1ccc(Cl)cc1 is ____.
4

Others:
Which value of Ratio IC50 has been reported for O=C1NCCCC[C@H]1N(Cc1nccs1)S(=O)(=O)c1ccc(Cl)cc1 in the records?
1

What Ratio IC50 value was documented for this compound, CCCNC(=O)c1ccc(CN([C@@H]2CCCCNC2=O)S(=O)(=O)c2ccc(Cl)cc2)cc1 ?
0.5

Requested field: Ratio IC50. Item: O=C1NCCCC[C@H]1N(Cc1cnc2ccccc2c1)S(=O)(=O)c1ccc(Cl)cc1
2

Record request: Ratio IC50 value, item O=C1NCCCC[C@H]1N(Cc1ccc2c(c1)OCCO2)S(=O)(=O)c1ccc(Cl)cc1
17

Can you share its Ratio IC50? I mean this compound: O=C1NCCCC[C@H]1N(Cc1cc2ccccc2s1)S(=O)(=O)c1ccc(Cl)cc1
6

Report Ratio IC50 for O=C1NCCCC[C@H]1N(Cc1ccc2nsnc2c1)S(=O)(=O)c1ccc(Cl)cc1 please.
3

// Ratio IC50 lookup, key: CC(C)NC(=O)c1ccc(CN([C@@H]2CCCCNC2=O)S(=O)(=O)c2ccc(Cl)cc2)cc1
2

Given the entry O=C1NCCCC[C@H]1N(Cc1cc2ccccc2o1)S(=O)(=O)c1ccc(Cl)cc1 , report its measured Ratio IC50.
2

----------
- Assay Procedure: Inhibition of gamma-secretase-mediated APP cleavage assessed as amyloid beta40 level after 2 hrs by ELISA
Each record here notes measured pIC50.
To interpret pIC50, take it as minus log10 of a concentration measured in moles per litre.

Some solved entries appear below for comparison.
Reported pIC50, compound CCCNC(=O)c1ccc(CN([C@@H]2CCCCNC2=O)S(=O)(=O)c2ccc(Cl)cc2)cc1 : ____
7.35

Query: pIC50; subject: Cc1ccc(CN([C@@H]2CCCCNC2=O)S(=O)(=O)c2ccc(Cl)cc2)o1
6.36

For the compound shown here, CC(C)(C)CNC(=O)c1ccc(CN([C@@H]2CCCCNC2=O)S(=O)(=O)c2ccc(Cl)cc2)cc1 , give the reported pIC50.
7.52

What value of pIC50 has been recorded for this entry: O=C1NCCCC[C@H]1N(Cc1ccc2nsnc2c1)S(=O)(=O)c1ccc(Cl)cc1
7.89

New cases:
Entry O=C1NCCCC[C@H]1N(Cc1cc2ccccc2o1)S(=O)(=O)c1ccc(Cl)cc1 has what pIC50?
7.92

What does the record list as pIC50 for COc1cc(CN(C2CCCCNC2=O)S(=O)(=O)c2ccc(Cl)cc2)ccc1OCCc1scnc1C (centres undefined) ?
5.77

Given the compound O=C(Nc1ccccc1)c1ccc(CN([C@@H]2CCCCNC2=O)S(=O)(=O)c2ccc(Cl)cc2)cc1 , what is its reported pIC50?
7.12

I have this compound here, COc1cc(CN([C@H]2CCCCNC2=O)S(=O)(=O)c2ccc(Cl)cc2)ccc1OCCc1scnc1C , and I need its recorded pIC50.
5.70

Any idea what its pIC50 is? The compound is O=C1NCCCC[C@H]1N(Cc1ccc2snnc2c1)S(=O)(=O)c1ccc(Cl)cc1
8.10

----------
- Assay Procedure: Inhibition of gamma-secretase-mediated APP cleavage assessed as amyloid beta40 level after 2 hrs by ELISA
Below, each entry is listed alongside its reported pIC50.
pIC50 (log units): -log10 of the concentration in mol/L.

Form field: reported pIC50 of O=C(NCc1ccccc1)c1ccc(CN([C@@H]2CCCCNC2=O)S(=O)(=O)c2ccc(Cl)cc2)cc1
8.05

Further cases:
Using the record for O=C1NCCCC[C@H]1N(Cc1ccc2c(c1)OCCO2)S(=O)(=O)c1ccc(Cl)cc1 , report its pIC50.
8.05

Record request: pIC50 value, item Cc1ccc(CN([C@@H]2CCCCNC2=O)S(=O)(=O)c2ccc(Cl)cc2)s1
7.09

Which pIC50 value is on record for Cn1nnc2cc(CN([C@@H]3CCCCNC3=O)S(=O)(=O)c3ccc(Cl)cc3)ccc21 ?
7.92

Dear colleague, I am looking for the recorded pIC50 of the following molecule: O=C1NCCCC[C@H]1N(Cc1ccc2ncccc2c1)S(=O)(=O)c1ccc(Cl)cc1
8.22

Can you share its pIC50? I mean this molecule: O=C1NCCCC[C@H]1N(Cc1nccs1)S(=O)(=O)c1ccc(Cl)cc1
5.74

----------
- Assay Procedure: Inhibition of gamma-secretase-mediated notch cleavage after 2 hrs by ELISA
Recorded IC50 split into classes low range = under 30 nM, mid range = from 30 nM up to 100 nM, high range = 100 nM and over

GET /class?item= O=C1NCCCC[C@H]1N(Cc1ccc2snnc2c1)S(=O)(=O)c1ccc(Cl)cc1
low range

Exam item: assign O=C1NCCCC[C@H]1N(Cc1cnc2ncccc2c1)S(=O)(=O)c1ccc(Cl)cc1 to the correct category.
high range

Category of Cn1c(CN([C@@H]2CCCCNC2=O)S(=O)(=O)c2ccc(Cl)cc2)cc2ccccc21 :
high range

Further cases:
Category lookup for the molecule CC(C)NC(=O)c1ccc(CN([C@@H]2CCCCNC2=O)S(=O)(=O)c2ccc(Cl)cc2)cc1
mid range

Kindly state the category for this molecule: O=C1NCCCC[C@H]1N(Cc1ccc2nsnc2c1)S(=O)(=O)c1ccc(Cl)cc1
mid range

Sort O=C1NCCCC[C@H]1N(Cc1ccc2ncccc2c1)S(=O)(=O)c1ccc(Cl)cc1 into one of the categories.
low range

Sort into band: Cc1cccc(CN([C@@H]2CCCCNC2=O)S(=O)(=O)c2ccc(Cl)cc2)n1
high range

Form: Item = O=C1NCCCC[C@H]1N(Cc1ccc2nccnc2c1)S(=O)(=O)c1ccc(Cl)cc1 ; Class = ?
low range

Class label required: O=C(NCc1ccccc1)c1ccc(CN([C@@H]2CCCCNC2=O)S(=O)(=O)c2ccc(Cl)cc2)cc1
low range

Which IC50 category applies to O=C(Nc1ccccc1)c1ccc(CN([C@@H]2CCCCNC2=O)S(=O)(=O)c2ccc(Cl)cc2)cc1 here?
mid range

Lab note: sort O=C1NCCCC[C@H]1N(Cc1nccs1)S(=O)(=O)c1ccc(Cl)cc1 into the matching IC50 band.
high range

----------
Form field: Ratio IC50 (one value per entry).
- Assay Procedure: Selectivity ratio of IC50 for gamma-secretase-mediated notch cleavage to IC50 gamma-secretase-mediated APP cleavage
API doc: respond with a numeric literal and nothing else, no unit.

Examples with answers:
Give the measured Ratio IC50 of O=C(NC1CC1)c1ccc(CN([C@@H]2CCCCNC2=O)S(=O)(=O)c2ccc(Cl)cc2)cc1 .
2

Which Ratio IC50 is listed for CC(C)(C)CNC(=O)c1ccc(CN([C@@H]2CCCCNC2=O)S(=O)(=O)c2ccc(Cl)cc2)cc1 ?
2

Tell me the measured Ratio IC50 of O=C1NCCCC[C@H]1N(CC1CCc2ccccc2O1)S(=O)(=O)c1ccc(Cl)cc1 (some centres undefined) , please.
1

Requested field: Ratio IC50. Item: O=C1NCCCC[C@H]1N(Cc1ccc2snnc2c1)S(=O)(=O)c1ccc(Cl)cc1
3

New cases:
Suppose we examine the compound O=C(NC1CCCC1)c1ccc(CN([C@@H]2CCCCNC2=O)S(=O)(=O)c2ccc(Cl)cc2)cc1 ; what Ratio IC50 value has been reported?
0.6

Find the recorded Ratio IC50 belonging to Cc1cccc(CN([C@@H]2CCCCNC2=O)S(=O)(=O)c2ccc(Cl)cc2)n1 and report it.
2

// lookup Ratio IC50 for O=C1NCCCC[C@H]1N(Cc1ccc2nccnc2c1)S(=O)(=O)c1ccc(Cl)cc1
2

Please look up its Ratio IC50: O=C(NCc1ccccc1)c1ccc(CN([C@@H]2CCCCNC2=O)S(=O)(=O)c2ccc(Cl)cc2)cc1
2

# Ratio IC50 lookup, item O=C1NCCCC[C@H]1N(Cc1ccc2ncccc2c1)S(=O)(=O)c1ccc(Cl)cc1
0.6

----------
- Assay Procedure: Inhibition of gamma-secretase-mediated notch cleavage after 2 hrs by ELISA
Value Type: pIC50
// returns pIC50 (minus log10 of molar concentration), number only

Below, 3 compounds whose answers are already recorded.
What pIC50 value was documented for this compound, O=C(NC1CCC1)c1ccc(CN([C@@H]2CCCCNC2=O)S(=O)(=O)c2ccc(Cl)cc2)cc1 ?
7.31

Name the reported pIC50 value associated with the compound CC(C)(C)CNC(=O)c1ccc(CN([C@@H]2CCCCNC2=O)S(=O)(=O)c2ccc(Cl)cc2)cc1
7.26

Endpoint output: pIC50 of O=C1NCCCC[C@H]1N(Cc1ccc2c(c1)OCCO2)S(=O)(=O)c1ccc(Cl)cc1 . Value?
6.82

Now for the compound whose pIC50 we want.
GET /values?readout=pIC50&item= Cc1ccc(CN([C@@H]2CCCCNC2=O)S(=O)(=O)c2ccc(Cl)cc2)o1
6.22
